targetOfAssay: porcine pancreatic elastase (Sus scrofa, UniProt P00772)
Sequence (P00772 27-266): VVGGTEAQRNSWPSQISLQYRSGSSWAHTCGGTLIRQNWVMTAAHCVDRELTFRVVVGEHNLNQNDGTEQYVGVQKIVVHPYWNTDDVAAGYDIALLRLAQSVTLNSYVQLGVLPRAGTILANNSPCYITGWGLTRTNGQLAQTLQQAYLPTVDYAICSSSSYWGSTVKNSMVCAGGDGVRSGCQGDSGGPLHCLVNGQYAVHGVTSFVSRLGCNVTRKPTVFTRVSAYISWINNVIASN
assayInfo: Inhibition constant KI (Dixon method) on pancreatic elastase, hydrolysis of succinyl-tri-L-alanine-paranitroanilide
Assay type: biochemical
measurementParameters: 25° C., TRIS 0.2 M buffer, pH 8; absence of any organic solvent; read-out: K T^ (a) pancreatic
Counter-ions that a name gives are not always drawn. Peptide text beside a SMILES is read from it. * marks the point of attachment. pNA = O=[N+]([O-])c1ccc(N*)cc1; Tfa = O=C(C(F)(F)F)*
measureName: pKi
A value of pKi is the negative decimal logarithm of a concentration given in moles per litre.

C[C@H](NC(=O)[C@H](C)NC(=O)C(F)(F)F)C(=O)Nc1ccc(C#N)cc1    6.96
Cc1ccc(NC(=O)[C@H](C)NC(=O)[C@H](CCCCN)NC(=O)C(F)(F)F)cc1    7.52
C[C@H](NC(=O)[C@H](C)NC(=O)C(F)(F)F)C(=O)Nc1ccc([N+](=O)[O-])cc1 [Code number 3] (Tfa-Ala-Ala-pNA)    6.92

Continue with the compound presented below.
Looking up C[C@H](NC(=O)[C@H](C)NC(=O)C(F)(F)F)C(=O)Nc1cccc([N+](=O)[O-])c1 , I see its pKi listed as 6.42

* * *

# pKi per entry
targetOfAssay: leucocytal elastase (Homo sapiens)
Construct: This latter was purified according to the Travis method; from tissue
assayInfo: Inhibition constant KI (Dixon method) on leucocytal elastase, hydrolysis of succinyl-tri-L-alanine-paranitroanilide
Type: biochemical
measurementParameters: 25° C., TRIS 0.2 M buffer, pH 8; absence of any organic solvent; read-out: K T^ (a) leucocytal
Where a name gives a salt, the structure may show the parent alone. Peptide text beside a SMILES is read from it. * marks the point of attachment. Tfa = O=C(C(F)(F)F)*; NHPh = c1ccc(N*)cc1
A value of pKi is the negative decimal logarithm of a concentration given in moles per litre.

Worked examples follow.
C[C@H](NC(=O)[C@H](CCCCN)NC(=O)C(F)(F)F)C(=O)Nc1ccccc1 [compound 11] (Tfa-Lys-Ala-NHPh)    4.36
CC(=O)c1ccc(NC(=O)[C@H](C)NC(=O)[C@H](CCCCN)NC(=O)C(F)(F)F)cc1    5.60
Cc1ccc(NC(=O)[C@H](C)NC(=O)[C@H](CCCCN)NC(=O)C(F)(F)F)cc1    4.85
C[C@H](NC(=O)[C@H](CCCCN)NC(=O)C(F)(F)F)C(=O)Nc1ccc(C(F)(F)F)cc1    5.52

Continue with the molecule presented below.
Looking up CC(C)c1ccc(NC(=O)[C@H](C)NC(=O)[C@H](CCCCN)NC(=O)C(F)(F)F)cc1 , I see its pKi listed as 6.15

* * *

targetOfAssay: leucocytal elastase (Homo sapiens)
Construct: This latter was purified according to the Travis method
Sequence (P08246 30-267): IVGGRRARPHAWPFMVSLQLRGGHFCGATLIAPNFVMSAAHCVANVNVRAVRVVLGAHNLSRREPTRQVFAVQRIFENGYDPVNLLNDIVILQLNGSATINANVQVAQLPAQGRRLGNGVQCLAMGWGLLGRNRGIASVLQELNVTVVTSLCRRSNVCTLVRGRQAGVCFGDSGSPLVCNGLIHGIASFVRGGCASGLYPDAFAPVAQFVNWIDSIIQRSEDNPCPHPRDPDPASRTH
assayInfo: I50 on leucocytal elastase, hydrolysis of succinyl-tri-alanine-paranitroanilide at 10^-3 M
measurementParameters: 25° C., TRIS 0.2 M buffer, pH 8; substrate 10^-3 M; in the presence of 50 % dimethylformamide (footnote); read-out: T 50^ (b) leucocytal
Structures can show the parent of a compound that is named as a salt. Peptide text beside a SMILES is read from it. * marks the point of attachment. pNA = O=[N+]([O-])c1ccc(N*)cc1; Tfa = O=C(C(F)(F)F)*
measureName: IC50 (µM)
A number alone suffices; assume µM.

Worked examples follow.
C[C@H](NC(=O)[C@H](C)NC(=O)C(F)(F)F)C(=O)Nc1ccc([N+](=O)[O-])cc1 [Code number 3] (Tfa-Ala-Ala-pNA)    78
C[C@H](NC(=O)[C@H](C)NC(=O)C(F)(F)F)C(=O)Nc1ccc(Cl)cc1    100

Continue with the compound presented below.
The reported IC50 value, leucocytal elastase (Homo sapiens), for C[C@H](NC(=O)[C@H](C)NC(=O)C(F)(F)F)C(=O)Nc1cccc(C(F)(F)F)c1 reads 120
